Test system: HuH-1
Test Protocol: Antiproliferative activity against human HuH-1 cells assessed as inhibition of cell growth incubated for 48 hrs by CCK-8 method
Assay type: functional, cell-based
Setup Conditions: HuH-1, 48 h
pIC50: −log10 of the molar value.

| Smiles Structure | System | Value Comparator | pIC50 |
| --- | --- | --- | --- |
| COC(=O)[C@H](CCCCNC(=O)CN1C(=O)C(=O)c2cc(F)ccc21)NC(=O)CN1C(=O)C(=O)c2cc(F)ccc21 | HuH-1 | < | 4.00 |
| COC(=O)[C@H](CCCCNC(=O)CN1C(=O)C(=O)c2cc(OC)ccc21)NC(=O)CN1C(=O)C(=O)c2cc(OC)ccc21 | HuH-1 | < | 4.00 |
| COC(=O)[C@H](CCCCNC(=O)CN1C(=O)C(=O)c2cc(Br)ccc21)NC(=O)CN1C(=O)C(=O)c2cc(Br)ccc21 | HuH-1 | = | 4.77 |
| CNC(=O)c1cc(Oc2ccc(NC(=O)Nc3ccc(Cl)c(C(F)(F)F)c3)cc2)ccn1 | HuH-1 | = | 5.02 |
| COC(=O)[C@H](CCCCNC(=O)CN1C(=O)C(=O)c2cc(Cl)ccc21)NC(=O)CN1C(=O)C(=O)c2cc(Cl)ccc21 | HuH-1 | = | 4.58 |
| COC(=O)[C@H](CCCCNC(=O)CN1C(=O)C(=O)c2cc(C)ccc21)NC(=O)CN1C(=O)C(=O)c2cc(C)ccc21 | HuH-1 | = | 4.46 |
| COC(=O)[C@H](CCCCNC(=O)CN1C(=O)C(=O)c2ccccc21)NC(=O)CN1C(=O)C(=O)c2ccccc21 | HuH-1 | < | 4.00 |
